Reported IC50 values for the following molecules.
molecular target: Human Recombinant (E. coli) PPARgamma (Homo sapiens); assay: PPAR gamma binding assay ([3H]-rosiglitazone); conditions: [3H]-rosiglitazone 10 nM; read-out: PPARγ binding IC50
Sequence (P37231 whole entry): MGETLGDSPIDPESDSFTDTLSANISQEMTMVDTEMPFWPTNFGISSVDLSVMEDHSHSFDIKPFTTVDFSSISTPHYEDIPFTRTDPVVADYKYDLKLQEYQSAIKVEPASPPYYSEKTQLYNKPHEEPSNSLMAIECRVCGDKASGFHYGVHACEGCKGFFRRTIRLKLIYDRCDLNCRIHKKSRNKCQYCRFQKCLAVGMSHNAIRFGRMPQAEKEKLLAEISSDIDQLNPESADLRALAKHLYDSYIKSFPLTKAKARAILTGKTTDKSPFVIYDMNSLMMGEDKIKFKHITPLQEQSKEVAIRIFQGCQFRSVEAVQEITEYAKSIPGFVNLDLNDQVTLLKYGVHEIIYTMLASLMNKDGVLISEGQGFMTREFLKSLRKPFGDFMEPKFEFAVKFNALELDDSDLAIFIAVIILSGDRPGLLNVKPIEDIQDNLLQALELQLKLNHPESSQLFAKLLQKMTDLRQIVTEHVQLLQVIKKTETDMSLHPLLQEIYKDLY
Write the value in µM as a bare number.

> print(dat)
                                   molecule  propertylabel  endpointunit  value
1  COc1ccc(Oc2ccccc2C2OC[C@@H](C/C=C\CCC(=O)O)[C@@H](c3ccccc3O)O2)cc1 (stereo partly shown) [Compound 1]           IC50            µM    2.3
2  COc1ccccc1C1OC(c2ccccc2Cl)OCC1C/C=C\CCC(=O)O (stereo not shown) [Compound D]           IC50            µM     21
3  O=C(O)CC/C=C\CC1COC(c2ccccc2Cl)OC1c1ccccc1O (racemic) [Compound A]           IC50            µM     13

Kindly state the measured IC50 obtained for O=C(O)CC/C=C\C[C@@H]1COC(c2ccccc2Oc2ccc(F)cc2)O[C@@H]1c1ccccc1O (stereo partly shown) [Compound 4] with Human Recombinant (E. coli) PPARgamma (Homo sapiens). 2.1

====

Target: Thromboxane synthase (Homo sapiens, UniProt P24557)
Construct: Human Platelet Thromboxane Synthase Assay; from tissue; host or cells: human platelets
Sequence (P24557 1-533): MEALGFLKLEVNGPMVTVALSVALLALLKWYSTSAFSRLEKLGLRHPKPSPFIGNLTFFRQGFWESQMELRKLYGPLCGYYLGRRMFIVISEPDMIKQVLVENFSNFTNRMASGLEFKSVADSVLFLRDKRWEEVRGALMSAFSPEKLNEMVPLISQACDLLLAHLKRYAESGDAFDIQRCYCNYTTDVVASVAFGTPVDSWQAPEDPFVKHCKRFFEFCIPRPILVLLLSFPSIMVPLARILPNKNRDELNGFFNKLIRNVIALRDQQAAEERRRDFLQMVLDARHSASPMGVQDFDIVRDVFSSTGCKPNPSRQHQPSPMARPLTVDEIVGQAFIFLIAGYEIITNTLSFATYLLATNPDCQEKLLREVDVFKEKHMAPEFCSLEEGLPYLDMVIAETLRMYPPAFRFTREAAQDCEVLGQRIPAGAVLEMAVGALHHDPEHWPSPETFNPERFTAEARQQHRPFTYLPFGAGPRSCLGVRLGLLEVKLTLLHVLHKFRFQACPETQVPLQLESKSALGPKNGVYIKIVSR
Assay: Human platelet thromboxane synthase assay
Type: biochemical
Settings: 5 μM
Reported inhibition at 5 µM values for the following compounds.
Write the value in % as a bare number.

Observe how each entry below is paired with its result.
> print(dat)
                                   compound  value
1  O=C(O)CC/C=C\C[C@@H]1COC(c2ccccc2-c2ccccc2)O[C@@H]1c1ccccc1O (stereo partly shown)     75
2  COc1ccc(Oc2ccccc2C2OC[C@@H](C/C=C\CCC(=O)O)[C@@H](c3ccccc3O)O2)cc1 (stereo partly shown)     71
3  COc1ccccc1C1OC(c2ccccc2Cl)OCC1C/C=C\CCC(=O)O (stereo not shown)     12

Shift focus to the following entry.
Looking for the measured inhibition at 5 µM of O=C(O)CC/C=C\C[C@@H]1COC(c2ccccc2Oc2ccc(F)cc2)O[C@@H]1c1ccccc1O (stereo partly shown) , can you help? 39
